Value source: ChEMBL document CHEMBL5113453

# Tested on: SNB-19
# experiment notes: Antiproliferative activity against human SNB-19 cells measured after 48 hrs by SRB assay
# Type: functional, cell-based
# experimental parameters: SNB-19, time 48 hrs
assay metric: TGI

1. O=C(Nc1ccc(Cl)c(C(F)(F)F)c1)N1CCN(c2cc(-c3cn(-c4ccccc4)nc3-c3cccc(O)c3)ccn2)CC1; > 22 µM
2. O=C(NCCCNc1cc(-c2cn(-c3ccccc3)nc2-c2cccc(O)c2)ccn1)Nc1cccc(C(F)(F)F)c1; 8.97 µM
3. COc1cccc(-c2nn(-c3ccccc3)cc2-c2ccnc(NCCCNC(=O)Nc3ccc(F)cc3)c2)c1; > 37 µM
4. O=C1c2ccccc2-c2n[nH]c3cccc1c23; > 100 µM
5. O=C(NCCCNc1cc(-c2cn(-c3ccccc3)nc2-c2cccc(O)c2)ccn1)Nc1ccc(F)cc1; 9.75 µM

---

Overview of recorded inhibition for various compounds
# tested on: Mitogen-activated protein kinase 10 (Homo sapiens, UniProt P53779)
# Sequence (P53779 whole entry): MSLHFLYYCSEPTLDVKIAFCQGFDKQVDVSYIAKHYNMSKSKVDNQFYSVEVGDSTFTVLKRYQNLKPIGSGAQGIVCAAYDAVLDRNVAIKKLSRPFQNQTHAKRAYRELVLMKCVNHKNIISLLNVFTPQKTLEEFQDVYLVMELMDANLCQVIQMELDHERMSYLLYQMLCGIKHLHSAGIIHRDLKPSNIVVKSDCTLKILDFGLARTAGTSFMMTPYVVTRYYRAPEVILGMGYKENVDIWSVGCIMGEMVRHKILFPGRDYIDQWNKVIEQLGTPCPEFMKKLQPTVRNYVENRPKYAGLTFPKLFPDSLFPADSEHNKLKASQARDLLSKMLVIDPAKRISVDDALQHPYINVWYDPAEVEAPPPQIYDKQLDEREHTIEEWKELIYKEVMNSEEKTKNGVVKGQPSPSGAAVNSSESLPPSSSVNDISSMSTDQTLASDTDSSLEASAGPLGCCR
# experiment notes: Inhibition of JNK3 (unknown origin) at 1 uM relative to control
assay metric: inhibition (%)

1) O=C(Nc1ccc(Cl)c(Cl)c1)N1CCN(c2cc(-c3cn(-c4ccccc4)nc3-c3cccc(O)c3)ccn2)CC1; 3
2) O=C(Nc1cccc(C(F)(F)F)c1)N1CCN(c2cc(-c3cn(-c4ccccc4)nc3-c3cccc(O)c3)ccn2)CC1; 17
3) O=C(NCCNc1cc(-c2cn(-c3ccccc3)nc2-c2cccc(O)c2)ccn1)Nc1ccc(F)cc1; 83
4) COc1cccc(-c2nn(-c3ccccc3)cc2-c2ccnc(NCCCNC(=O)Nc3ccc(F)cc3)c2)c1; 3
5) O=C(NCCNc1cc(-c2cn(-c3ccccc3)nc2-c2cccc(O)c2)ccn1)Nc1cc(C(F)(F)F)cc(C(F)(F)F)c1; 19
6) O=C(NCCCNc1cc(-c2cn(-c3ccccc3)nc2-c2cccc(O)c2)ccn1)Nc1cc(C(F)(F)F)cc(C(F)(F)F)c1; 0
7) O=C(Nc1cc(C(F)(F)F)cc(C(F)(F)F)c1)N1CCN(c2cc(-c3cn(-c4ccccc4)nc3-c3cccc(O)c3)ccn2)CC1; 1

---

# Test system: A549
# experiment notes: Antiproliferative activity against human A549 cells measured after 48 hrs by SRB assay
# Type: functional, cell-based
# experimental parameters: A549, time 48 hrs
assay metric: TGI

1) O=C(NCCCNc1cc(-c2cn(-c3ccccc3)nc2-c2cccc(O)c2)ccn1)Nc1cccc(C(F)(F)F)c1; 11.2 µM
2) O=C1c2ccccc2-c2n[nH]c3cccc1c23; > 100 µM
3) O=C(NCCCNc1cc(-c2cn(-c3ccccc3)nc2-c2cccc(O)c2)ccn1)Nc1ccc(F)cc1; > 21.7 µM
4) O=C(Nc1ccc(Cl)c(C(F)(F)F)c1)N1CCN(c2cc(-c3cn(-c4ccccc4)nc3-c3cccc(O)c3)ccn2)CC1; > 22 µM
5) COc1cccc(-c2nn(-c3ccccc3)cc2-c2ccnc(NCCCNC(=O)Nc3ccc(F)cc3)c2)c1; > 37 µM

---

Overview of recorded TGI for various compounds
# Test system: SF-539
# experiment notes: Antiproliferative activity against human SF-539 cells measured after 48 hrs by SRB assay
# Assay type: functional, cell-based
# experimental parameters: SF-539, time 48 hrs
assay metric: TGI (µM)

1) COc1cccc(-c2nn(-c3ccccc3)cc2-c2ccnc(NCCCNC(=O)Nc3ccc(F)cc3)c2)c1; 13.4
2) O=C(NCCCNc1cc(-c2cn(-c3ccccc3)nc2-c2cccc(O)c2)ccn1)Nc1cccc(C(F)(F)F)c1; 7.18
3) O=C(NCCCNc1cc(-c2cn(-c3ccccc3)nc2-c2cccc(O)c2)ccn1)Nc1ccc(F)cc1; 5.38
